The compounds listed here are annotated with their selectivity ratio.
# Procedure Details: Relative toxicity was evaluated as ED50 for KB cell line to that of ED50 for T.B. brucei
# Type: organism-based
# Conditions Used: trypanosoma brucei brucei, KB cells versus Trypanosoma brucei brucei; read-out: Relative toxicity
Readout Type: selectivity ratio

Compound	Readout Type	Prefix Operator	Quantitative Readout
CC(C)CCC(C)OC(=O)CNC(=O)C(CSc1ccc([N+](=O)[O-])cc1[N+](=O)[O-])NC(=O)CCC(NC(=O)OCc1ccccc1)C(=O)OC(C)CCC(C)C (centres undefined)	selectivity ratio	>	9
CC(C)OC(=O)CNC(=O)C(CSc1ccc([N+](=O)[O-])cc1[N+](=O)[O-])NC(=O)CCC(NC(=O)OCc1ccccc1)C(=O)OC(C)C (centres undefined)	selectivity ratio	=	13.5
CC(C)C(C)OC(=O)CNC(=O)C(CSc1ccc([N+](=O)[O-])cc1[N+](=O)[O-])NC(=O)CCC(NC(=O)OCc1ccccc1)C(=O)OC(C)C(C)C (centres undefined)	selectivity ratio	=	24
CCCCC(C)OC(=O)CNC(=O)C(CSc1ccc([N+](=O)[O-])cc1[N+](=O)[O-])NC(=O)CCC(NC(=O)OCc1ccccc1)C(=O)OC(C)CCCC (centres undefined)	selectivity ratio	=	46
